assay: Inhibition of Mycobacterium tuberculosis RNA polymerase H445Y mutant by rolling circle transcription assay in the presence of sigmaA factor
experimental readout: IC50 (µM)
# number only, unit µM dropped from output

# count of solved cases: 2
CO[C@H]1/C=C/O[C@@]2(C)Oc3c(C)c(O)c4c(=O)c(c5oc6cccc(OCCCCN7CCN(C(=O)Cn8ccnc8)CC7)c6nc-5c4c3C2=O)NC(=O)/C(C)=C\C=C\[C@H](C)[C@H](O)[C@@H](C)[C@@H](O)[C@@H](C)[C@H](OC(C)=O)[C@@H]1C	574
CCN(CC)CCOc1cccc2oc3c4c(=O)c5c(O)c(C)c6c(c5c-3nc12)C(=O)[C@@](C)(O/C=C/[C@H](OC)[C@@H](C)[C@@H](OC(C)=O)[C@H](C)[C@H](O)[C@H](C)[C@@H](O)[C@@H](C)/C=C/C=C(/C)C(=O)N4)O6	171

Inquiry: Reported IC50, compound CO[C@H]1/C=C/O[C@@]2(C)Oc3c(C)c(O)c4c(=O)c(c5oc6cc(N7CCN(CC(C)C)CC7)cc(O)c6nc-5c4c3C2=O)NC(=O)/C(C)=C\C=C\[C@H](C)[C@H](O)[C@@H](C)[C@@H](O)[C@@H](C)[C@H](OC(C)=O)[C@@H]1C : ____
Reply text: 172

Inquiry: Same lookup for CO[C@H]1/C=C/O[C@@]2(C)Oc3c(C)c(O)c4c(=O)c(c5oc6cccc(OCCCCN7CCN(CCn8ccnc8)CC7)c6nc-5c4c3C2=O)NC(=O)/C(C)=C\C=C\[C@H](C)[C@H](O)[C@@H](C)[C@@H](O)[C@@H](C)[C@H](OC(C)=O)[C@@H]1C , please.
Reply text: 437

###

assay: Inhibition of Mycobacterium tuberculosis RNA polymerase S450L mutant by rolling circle transcription assay in the presence of sigmaA factor
experimental readout: pIC50
Remember the convention: pIC50 equals -log10 of concentration in molar.

# count of solved cases: 3
CO[C@H]1/C=C/O[C@@]2(C)Oc3c(C)c(O)c4c(=O)c(c5oc6cccc(OCCCCN7CCN(CCn8ccnc8)CC7)c6nc-5c4c3C2=O)NC(=O)/C(C)=C\C=C\[C@H](C)[C@H](O)[C@@H](C)[C@@H](O)[C@@H](C)[C@H](OC(C)=O)[C@@H]1C	4.74
CO[C@H]1/C=C/O[C@@]2(C)Oc3c(C)c(O)c4c(=O)c(c5oc6cccc(OCCCCN7CCN(C(=O)Cn8ccnc8)CC7)c6nc-5c4c3C2=O)NC(=O)/C(C)=C\C=C\[C@H](C)[C@H](O)[C@@H](C)[C@@H](O)[C@@H](C)[C@H](OC(C)=O)[C@@H]1C	3.91
CO[C@H]1/C=C/O[C@@]2(C)Oc3c(C)c(O)c4c(=O)c(c5oc6cc(N7CCN(CC(C)C)CC7)cc(O)c6nc-5c4c3C2=O)NC(=O)/C(C)=C\C=C\[C@H](C)[C@H](O)[C@@H](C)[C@@H](O)[C@@H](C)[C@H](OC(C)=O)[C@@H]1C	3.93

# context switch: different compound, same pIC50
Inquiry: Which value of pIC50 has been reported for CCN(CC)CCOc1cccc2oc3c4c(=O)c5c(O)c(C)c6c(c5c-3nc12)C(=O)[C@@](C)(O/C=C/[C@H](OC)[C@@H](C)[C@@H](OC(C)=O)[C@H](C)[C@H](O)[C@H](C)[C@@H](O)[C@@H](C)/C=C/C=C(/C)C(=O)N4)O6 in the records?
Reply text: 4.80
